Conditions: male, Sprague-Dawley Crl:CD(SD), in vivo
experimental.readout: Rat unbound CL (mL/min/kg)
Numeric only. Scale: mL/min/kg

CN1C(=O)[C@@H](NC(=O)c2ncn(Cc3cccc(C#N)c3)n2)COc2cccnc21 ... 32

Ask: Item under review: C[C@H]1Oc2cccnc2N(C)C(=O)[C@H]1NC(=O)c1nnc(Cc2ccccc2)[nH]1 . Reported Rat unbound CL?
Reply: 44

Ask: Item under review: C[C@H]1Oc2cccnc2N(C)C(=O)[C@H]1NC(=O)c1nnc(Cc2ccccc2)o1 . Reported Rat unbound CL?
Reply: 100

Ask: Item under review: CN1C(=O)[C@@H](NC(=O)c2cc(C3(c4ccccc4)CC3)on2)COc2ccccc21 . Reported Rat unbound CL?
Reply: 3700
